The compounds listed here are annotated with their AUC(0-inf).
assay: Mean AUC inf in Swiss albino male mice at 1 mg/kg per compound (administered iv in a mixture of 5 compounds to 3 mice) assessed by LCMS/MS.; format: ADME, organism-based; details: male, Swiss albino, mouse, in vivo
outcome measure: AUC(0-inf) (ng·h/mL)

1. CC(C)c1nc2cnc(-c3cccc(S(F)(F)(F)(F)F)c3)cn2c1-c1c(F)cc(O)cc1F	231
2. CC1(c2nc3cnc(-c4ccc(F)c(C(F)(F)F)c4)cn3c2-c2c(F)cc(O)cc2F)CC1	528
3. COc1ccc(-c2c(C)nc3ccc(-c4cccc(C(F)(F)F)c4)cn23)cc1O	53.1
4. CC(C)c1nc2cnc(-c3ccc(F)c(C(F)(F)F)c3)cn2c1-c1ccc2[nH]ncc2c1	1440
5. CC(C)c1cc(-c2cn3c(-c4ccc5[nH]ncc5c4F)c(C4CC4)nc3cn2)ccc1F	530
6. CCc1nc2cnc(-c3ccc(F)c(C(F)(F)C(F)(F)F)c3)cn2c1-c1c(F)cc(O)cc1F	2210
7. Fc1ccc(-c2cn3c(-c4ccc5[nH]ncc5c4)c(C(F)(F)F)nc3cn2)cc1C(F)(F)F	2730
8. Fc1ccc(-c2cn3c(-c4ccc5[nH]ncc5c4F)c(C(F)(F)F)nc3cn2)cc1C1CC1	270
9. Cc1nc2cnc(-c3cccc(C(F)(F)C(F)(F)F)c3)cn2c1-c1c(F)cc(O)cc1F	320

---

The molecules listed here are annotated with their log10 of concentration at 24 h.
assay: Mean plasma concentration at 24h in Swiss albino male mice at […] per compound (administered orally in a mixture of 5 compounds to 3 mice) assessed by LCMS/MS.; type: ADME, organism-based; conditions: mouse, po
outcome measure: log10 of concentration at 24 h (log10 of the value in ng/mL)

1. CCc1nc2cnc(-c3ccc(F)c(C(F)(F)F)c3)cn2c1-c1ccc2[nH]ncc2c1F	1.33
2. Cc1nc2cnc(-c3ccc(F)c(C(F)(F)F)c3)cn2c1-c1ccc(O)cc1F	-1.00
3. Fc1c(-c2c(C(F)(F)F)nc3cnc(-c4cccc(OC(F)(F)F)c4)cn23)ccc2[nH]ncc12	0.95
4. CCc1nc2cnc(-c3ccc(F)c(C(F)(F)C(F)(F)F)c3)cn2c1-c1c(F)cc(O)cc1F	2.09
5. COc1ccc(-c2c(C3CC3)nc3cnc(-c4cccc(C(F)(F)F)c4)cn23)cc1O	-1.00
6. Oc1cc(F)c(-c2c(C3CC3)nc3cnc(-c4ccc(F)c(C(F)(F)F)c4)cn23)c(F)c1	2.18
7. CC(C)c1nc2cnc(-c3cccc(C(F)(F)F)c3)cn2c1-c1ccc2[nH]ncc2c1F	1.26
8. Oc1ccc(-c2cnn3ccc(-c4cccc(C(F)(F)F)c4)cc23)c(F)c1	-1.00
9. CCc1nn2cnc(-c3ccc(F)c(C(F)(F)F)c3)cc2c1-c1c(F)cc(O)cc1F	-2.00

---

assay: Mean volume of distribution at steady state in Swiss albino male mice at 1 mg/kg per compound (administered iv in a mixture of 5 compounds to 3 mice) assessed by LCMS/MS.; type: ADME, organism-based; details: mouse, in vivo, read-out: Volume
outcome measure: log10 of Vd (log10 of the value in L/kg)

1) Fc1c(-c2c(C(F)(F)F)nc3cnc(-c4cccc(OC(F)(F)F)c4)cn23)ccc2[nH]ncc12	0.75
2) CC(C)c1nn2cnc(-c3ccc(F)c(C(F)(F)F)c3)cc2c1-c1c(F)cc(O)cc1F	0.25
3) CC1(c2nc3cnc(-c4ccc(F)c(C(F)(F)F)c4)cn3c2-c2c(F)cc(O)cc2F)CC1	0.96
4) Fc1ccc(-c2cn3c(-c4ccc5[nH]ncc5c4F)c(C(F)(F)F)nc3cn2)cc1CC(F)(F)F	0.52
5) COc1ccc(-c2c(C)nc3ccc(-c4cccc(C(F)(F)F)c4)cn23)cc1O	0.56
6) CC(C)c1nc2cnc(-c3cccc(C(F)(F)F)c3)cn2c1-c1ccc2[nH]ncc2c1F	0.54
7) Cc1nc2cnc(-c3ccc(F)c(C(F)(F)F)c3)cn2c1-c1c(F)cc(O)cc1F	0.46
8) Fc1ccc(-c2cn3c(-c4ccc5[nH]ncc5c4F)c(C(F)(F)F)nc3cn2)cc1C1CC1	0.65
9) COc1ccc(-c2c(C)nn3cnc(-c4cccc(C(F)(F)F)c4)cc23)cc1O	0.50
10) CCc1nc2cnc(-c3ccc(F)c(C(F)(F)F)c3)cn2c1-c1ccc2[nH]ncc2c1F	0.14
11) CCc1nn2cnc(-c3ccc(F)c(C(F)(F)F)c3)cc2c1-c1c(F)cc(O)cc1F	0.61
12) COc1ccc(-c2c(C(C)C)nc3cnc(-c4ccnc(N(C)C)c4)cn23)cc1O	0.47
13) CCc1nc2cnc(-c3cccc(C(F)(F)F)c3)cn2c1-c1ccc(O)cc1F	0.34
14) Oc1cc(F)c(-c2c(C3CC3)nc3cnc(-c4ccc(F)c(C(F)(F)F)c4)cn23)c(F)c1	0.29
15) CCc1nc2cnc(-c3ccc(F)c(C(F)(F)F)c3)cn2c1-c1c(F)cc(O)cc1F	0.94
16) COc1cc(-c2c(C(C)C)nc3cnc(-c4cccc(C(F)(F)F)c4)cn23)cc2cn[nH]c12	0.83
17) Oc1ccc(-c2cnn3ccc(-c4cccc(C(F)(F)F)c4)cc23)c(F)c1	0.45
18) Cc1noc(C)c1-c1cn2c(-c3ccc(O)cc3)cnc2cn1	-0.31
19) Cc1nc2cnc(-c3ccc(F)c(C(F)(F)F)c3)cn2c1-c1c(F)cc(OP(=O)(O)O)cc1F	0.86

Just for reference, ChEMBL document CHEMBL4651341 is where these values come from.
